B1: Pistol ribozyme (parent)
chain: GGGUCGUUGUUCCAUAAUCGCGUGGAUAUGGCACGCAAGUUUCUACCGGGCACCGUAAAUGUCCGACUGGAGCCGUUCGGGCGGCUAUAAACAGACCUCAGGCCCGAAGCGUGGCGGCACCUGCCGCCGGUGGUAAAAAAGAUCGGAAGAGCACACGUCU

variants of: B1; assay: aptazyme ON/OFF ratio, guanine; higher = stronger switching; co-transcriptional cleavage with and without guanine
Hi there, I'd appreciate the recorded aptazyme ON/OFF ratio for every entry that follows.

Field: example entries. Status: answers known.
                       variantcode  testresult
0  U7C U8G G9U U10A U11G C12G C13U        1.19
1  U7A U8G G9U U10C U11A C12G C13G        1.28
2                U7C U8A U11C C12A        1.35
3       U7A U8C G9C U10G U11C C13G        1.33
4            U7C U8C G9U U11A C13A        1.17

// input: 3 variants below; output: aptazyme ON/OFF ratio for each
1. U7G U8G G9C C12A C13U
2. U7C U8A G9C U10C U11C
3. U8G U10G U11C C12G C13U

## Output
1. 1.2
2. 1.01
3. 1.13
